meta.source: patent US20220162310A1

# TGT: T1, TIGIT on the TIGIT-overexpressing Jurkat cell line (Jurkat-TIGIT) (Homo sapiens (Human), UniProt Q495A1 22-244)
# T1 construct: Jurkat E6.1 cells transfected with 'TIGIT cDNA'; also called TIGIT expressed on the cell surface
# T1 sequence: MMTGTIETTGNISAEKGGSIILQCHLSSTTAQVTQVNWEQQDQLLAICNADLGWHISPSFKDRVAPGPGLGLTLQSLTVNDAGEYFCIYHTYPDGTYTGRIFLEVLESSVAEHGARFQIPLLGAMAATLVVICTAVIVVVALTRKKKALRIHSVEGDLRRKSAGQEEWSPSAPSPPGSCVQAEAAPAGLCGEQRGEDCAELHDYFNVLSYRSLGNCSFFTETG
# ASSAY NOTES: flow cytometry on Jurkat-TIGIT cells, antibody 25 to 0.00032 ug/ml, PE goat anti-human Fab'2, MFI
MEASURED PROPERTY: EC50 (µg/mL)

[[record]]
binder = "1F10 (IgG-type anti-TIGIT antibody) (antibody, V domains shown, section 4.2 is headed 'Conversion to IgG4-Type Anti-TIGIT Antibodies') VH: EVQLVESGGGLVKPGGSLRISCAASGFTFSNYNMIWVRQAPGKGLEWVSSISSSASYIYYADSVKGRFTISRDNAKNSLYLQMNSLRAEDTAVYYCARDEGSRDSWNNGPYYYSGMDVWGQGTTVTVSS VL: AIQMTQSPSSLSASVGDRVTITCRASQSISRYLNWYQHKPGKAPKLLIYGASSLQSGVPSRFRGSGSGTDFTLTISSLQPEDFATYYCQQSYTTPGAFTFGGGTKVEIKR"
measured_property = "EC50"
observed_result = 0.08

